FYI, the data here is from patent US20160185837A1.

# target: T1, mouse GIP receptor (mouse, UniProt Q0P543 19-460)
# T1 sequence (looked up): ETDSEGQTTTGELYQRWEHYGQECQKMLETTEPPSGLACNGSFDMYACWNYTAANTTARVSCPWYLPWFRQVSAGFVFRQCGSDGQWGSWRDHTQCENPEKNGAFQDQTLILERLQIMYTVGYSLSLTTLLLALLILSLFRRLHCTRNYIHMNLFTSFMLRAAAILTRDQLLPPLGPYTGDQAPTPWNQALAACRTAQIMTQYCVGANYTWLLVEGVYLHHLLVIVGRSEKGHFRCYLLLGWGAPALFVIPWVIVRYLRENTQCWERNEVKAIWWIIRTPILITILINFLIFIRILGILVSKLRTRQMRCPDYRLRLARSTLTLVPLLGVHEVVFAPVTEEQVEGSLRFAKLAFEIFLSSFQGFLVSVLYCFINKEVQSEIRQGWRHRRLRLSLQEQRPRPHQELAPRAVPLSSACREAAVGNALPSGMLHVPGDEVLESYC
# test_details: cell-based or functional assay
Please go through the items and note down their cAMP EC50, Batch 2.
All answers are understood in nM, so give the number only.

Would you mind telling me what cAMP EC50, Batch 2 value was observed for IP328 (Fc fusion) YSEGTFTSDYSKLLEEEAVRLFIEWLLAGGGGGGGSGGGGSGGGGSGGGGSGGGGSGGGGSGGGGSGGGGSA ?
2.2

Another binder to look at: IP200 (Fc fusion) YSQGTFTSDYSKILEEEAVRLFIEWLVKGPAAAGGSGSTASSGSGSATGGGGAATHTCPPCPAPEF
160

Another binder to look at: IP324 (Fc fusion) YSEGTFTSDYSKLLEEEAVRLFIEWLVKGPGGGGGSGGGGSGGGGSGGGGSGGGGSGGGGSGGGGSA
67.5

Another binder to look at: IP201 (Fc fusion) YSEGTFTSDYSKLLEEEAVRLFIEWLLAGPSSGAPPPSAAAGGSGSTASSGSGSATGGGGAATHTCPPCPAPEF
1.6
